// values below are reported melting point

The following compounds have reported results that may help.
COC(=O)c1cccc(Nc2nc(Oc3ccccc3)nc(Oc3ccc(C(C)(C)C)cc3)n2)c1 [(10)] :: 85 to 86 °C
COC(=O)c1cccc(Nc2nc(Oc3ccc(OC)cc3)nc(Oc3ccc(C=O)cc3OC)n2)c1 [(15)] :: 79 to 82 °C
COc1ccc(Oc2nc(Nc3cccc(C(=O)O)c3)nc(Oc3ccccc3)n2)cc1 [(33)] :: 233 to 236.5 °C
COC(=O)c1cccc(Nc2nc(Oc3ccccc3)nc(Oc3ccccc3Cl)n2)c1 [(9)] :: 139 to 141.5 °C

Field request: melting point | item: CC(C)(C)OC(=O)c1cccc(Nc2nc(Oc3ccccc3)nc(Oc3ccccc3Cl)n2)c1 [(21)]
191 to 192 °C

Next compound up: N#Cc1ccc(Oc2nc(Nc3cccc(C(=O)O)c3)nc(Oc3ccccc3)n2)cc1 [(34)]
150 °C

Try COc1ccc(Oc2nc(Nc3cccc(C(=O)OC(C)(C)C)c3)nc(Oc3ccc(C=O)cc3OC)n2)cc1 [(27)] next.
88 to 106 °C

Entry to check: O=C(O)c1cccc(Nc2nc(Oc3ccccc3)nc(Oc3cccc([N+](=O)[O-])c3)n2)c1 [(35)]
225 to 228 °C

Next up: O=C(O)c1cccc(Nc2nc(Oc3ccccc3)nc(Oc3ccccc3Cl)n2)c1 [(31)]
249.5 to 251.5 °C

----------
assay metric: melting point

Take a look at these entries with their results.
O=C(O)c1cccc(Nc2nc(Oc3ccccc3)nc(Oc3ccc(Cl)cc3)n2)c1 :: 244 to 247 °C
COc1ccc(Oc2nc(Nc3cccc(C(=O)OC(C)(C)C)c3)nc(Oc3ccc(C#N)cc3)n2)cc1 :: 161 to 164 °C
COc1cc(C=O)ccc1Oc1nc(Nc2cccc(C(=O)O)c2)nc(Oc2ccccc2)n1 :: 217.5 to 220 °C

Proceed to the following item.
Give its melting point value. Item: COc1ccc(Oc2nc(Nc3cccc(C(=O)O)c3)nc(Oc3ccc(C#N)cc3)n2)cc1
240.5 to 242.5 °C

----------
System: Atrial natriuretic factor (ANF) expression, P19 cells
Experiment: ANF test (ANF promoter luciferase reporter) in P19 cells
Assay type: cell-based, murine
Details: Mus musculus, 192 h; P19 cells (**), compound 1 μM in DMSO, 8 days culture, relative to DMSO blank; read-out: Evaluation (luminescence in relation to the blank)
From the text: Atrial natriuretic factor (ANF) or atrial natriuretic peptide (ANP) is a cyclic peptide hormone made up of 28 amino acids, which is predominantly emitted by the muscle cells (myocytes) of the atrium of the heart. […] The evaluations have the following meanings: • − decrease of luminescence compared to the blank value; • + measurable increase; • ++ at least 1.5-fold increase; • +++ at least 2-fold increase; • * represents C2C12 cells; and • ** represents P19 cells.
assay metric: fold induction at 1 µM

Use these answered entries as a reference point.
O=C(O)c1cccc(Nc2nc(Oc3ccccc3)nc(Oc3cccc(Cl)c3)n2)c1 [(30)] :: ≥ 1.5
COc1cc(C=O)ccc1Oc1nc(Nc2cccc(C(=O)O)c2)nc(Oc2ccccc2)n1 [(36)] :: ≥ 2
COc1ccc(Oc2nc(Nc3cccc(C(=O)O)c3)nc(Oc3ccc(C#N)cc3)n2)cc1 [(38)] :: ≥ 1.5

Suppose we examine the molecule OCc1ccc(Nc2nc(Oc3ccccc3)nc(Oc3ccccc3)n2)cc1 [(39)] ; what fold induction at 1 µM value has been reported?
≥ 2

// next record CC(C)(C)c1ccc(Oc2nc(Nc3cccc(CO)c3)nc(Oc3ccccc3)n2)cc1 [(44)]
≥ 2

Record: O=C(O)c1cccc(Nc2nc(Oc3ccccc3)nc(Oc3ccccc3Cl)n2)c1 [(31)]
≥ 1.5

Thanks! And COC(=O)c1cccc(Nc2nc(Oc3ccccc3)nc(Oc3cccc(Cl)c3)n2)c1 [(8)] ?
≥ 1.5

Follow-up entry: O=C(O)c1cccc(Nc2nc(Oc3ccccc3)nc(Oc3cccc([N+](=O)[O-])c3)n2)c1 [(35)]
≥ 1.5

Repeat for the following molecule: O=C(O)c1cccc(Nc2nc(Oc3ccccc3)nc(Oc3ccc(Cl)cc3)n2)c1 [(29)]
≥ 2

----------
assay metric: melting point

COC(=O)c1cccc(Nc2nc(Oc3ccccc3)nc(Oc3ccc(C#N)cc3)n2)c1 :: 116.5 to 120 °C
COC(=O)c1cccc(Nc2nc(Oc3ccccc3)nc(Oc3ccc(Cl)cc3)n2)c1 :: 186.5 to 188 °C
COC(=O)c1cccc(Nc2nc(Oc3ccc(OC)cc3)nc(Oc3ccc(Br)cc3C=O)n2)c1 :: 180 °C
COc1ccc(Nc2ncnc(NCCO)n2)cc1 :: 160 to 164 °C
CC(C)(C)c1ccc(Oc2nc(Nc3cccc(C(=O)O)c3)nc(Oc3ccccc3)n2)cc1 :: 245 to 247 °C

Fill in the blank: the reported melting point of OCc1ccc(Nc2nc(Oc3ccccc3)nc(Oc3ccccc3)n2)cc1 is ____.
152.5 to 154 °C

What do we get for OCc1cccc(Nc2nc(Oc3ccccc3)nc(Oc3ccccc3)n2)c1 ?
49 to 52 °C

And what about the molecule CC(C)(C)OC(=O)c1cccc(Nc2nc(Oc3ccccc3)nc(Oc3ccc(C(C)(C)C)cc3)n2)c1 ?
139 to 141 °C

# iterate: OCc1cccc(Nc2nc(Oc3ccccc3)nc(Oc3ccccc3Cl)n2)c1
52 to 54 °C

----------
tested on: Atrial natriuretic factor (ANF) expression, P19 cells; assay: ANF test (ANF promoter luciferase reporter) in P19 cells; assay type: cell-based, murine; design: key: −: decrease of luminescence compared to the blank value; +: measurable increase; ++: at least 1.5-fold increase; +++: at least 2-fold increase; conditions: P19 cells (**), compound 1 μM in DMSO, 8 days culture, relative to DMSO blank
assay metric: Evaluation (luminescence in relation to the blank)

// below: answered compounds
COC(=O)c1cccc(Nc2nc(Oc3ccccc3)nc(Oc3ccc(OC)cc3)n2)c1 [(11)] :: −**
COC(=O)c1cccc(Nc2nc(Oc3ccccc3)nc(Oc3ccccc3Cl)n2)c1 [(9)] :: −**
N#Cc1ccc(Oc2nc(Nc3cccc(C(=O)O)c3)nc(Oc3ccccc3)n2)cc1 [(34)] :: +**
COc1ccc(Nc2ncnc(NCCO)n2)cc1 [(4)] :: −**

// switching to the query compound
For CC(C)(C)c1ccc(Oc2nc(Nc3cccc(C(=O)O)c3)nc(Oc3ccccc3)n2)cc1 [(32)] , what is its reported Evaluation (luminescence in relation to the blank)?
+**

----------
Quick reference: melting point of the listed items.

Worked examples follow.
COC(=O)c1cccc(Nc2nc(Oc3ccccc3)nc(Oc3ccccc3)n2)c1 :: 198 to 199.5 °C
CCOC(=O)c1ccc(Nc2nc(Oc3ccccc3)nc(Oc3ccccc3)n2)cc1 :: 159 to 161 °C
COc1ccc(Nc2nc(Cl)nc(NCCCO)n2)cc1 :: 155 to 159 °C
OCc1cccc(Nc2nc(Oc3ccccc3)nc(Oc3ccc(Cl)cc3)n2)c1 :: 110.5 to 114 °C
CC(C)(C)OC(=O)c1cccc(Nc2nc(Oc3ccccc3)nc(Oc3cccc(Cl)c3)n2)c1 :: 187.5 to 190.5 °C

Entry under review: CC(C)(C)OC(=O)c1cccc(Nc2nc(Oc3ccccc3)nc(Oc3ccc(Cl)cc3)n2)c1 . Reported melting point?
172.5 to 174 °C

Now the same for CC(C)(C)OC(=O)c1cccc(Nc2nc(Oc3ccccc3)nc(Oc3ccc(C#N)cc3)n2)c1
176.5 to 178.5 °C

And then CCNc1nc(Cl)nc(Nc2ccc(OC)cc2)n1 , what is it?
174 to 176 °C

Can you handle CC(C)(C)c1ccc(Oc2nc(Nc3cccc(CO)c3)nc(Oc3ccccc3)n2)cc1 next?
47 to 50 °C

Okay, and COc1ccc(Nc2nc(Cl)nc(NCCO)n2)cc1 ?
169 to 173 °C

Request: COC(=O)c1cccc(Nc2nc(Oc3ccc(C#N)cc3)nc(Oc3ccc(OC)cc3)n2)c1
132 to 134.5 °C

----------
tested on: Atrial natriuretic factor (ANF) expression, P19 cells; assay: ANF test (ANF promoter luciferase reporter) in P19 cells; assay type: cell-based, murine; set-up: key: −: decrease of luminescence compared to the blank value; +: measurable increase; ++: at least 1.5-fold increase; +++: at least 2-fold increase; details: P19 cells (**), compound 1 μM in DMSO, 8 days culture, relative to DMSO blank
assay metric: Evaluation (luminescence in relation to the blank)

COc1ccc(Oc2nc(Nc3cccc(CO)c3)nc(Oc3ccccc3)n2)cc1 [(45)] :: +**
COC(=O)c1cccc(Nc2nc(Oc3ccccc3)nc(Oc3cccc([N+](=O)[O-])c3)n2)c1 [(13)] :: −**
COc1ccc(Oc2nc(Nc3cccc(C(=O)O)c3)nc(Oc3ccccc3)n2)cc1 [(33)] :: +**
CCNc1nc(Cl)nc(Nc2ccc(OC)cc2)n1 [(3)] :: −**
COC(=O)c1cccc(Nc2nc(Oc3ccccc3)nc(Oc3ccc(C#N)cc3)n2)c1 [(12)] :: −**
OCc1cccc(Nc2nc(Oc3ccccc3)nc(Oc3ccccc3)n2)c1 [(40)] :: +**
COC(=O)c1cccc(Nc2nc(Oc3ccccc3)nc(Oc3ccc(Cl)cc3)n2)c1 [(7)] :: −**
COC(=O)c1cccc(Nc2nc(Oc3ccccc3)nc(Oc3ccc(C(C)(C)C)cc3)n2)c1 [(10)] :: −**

Turning to the following compound.
Can you share its Evaluation (luminescence in relation to the blank)? I mean this compound: CCOC(=O)c1ccc(Nc2nc(Oc3ccccc3)nc(Oc3ccccc3)n2)cc1 [(5)]
−**
